# assay.target: the molecule itself
# protocol.text: pull-down; purified Flag-tagged MBP-Sgol2cc (31-117) pulled down by purified His-tagged MBP-Sgol2cc (31-117) with the same substitution; western blots
readout.name: binding result

Example entries begin here.
For record MBP-Sgol2cc-Flag N55I (domain or fragment, mouse, UniProt Q7TSY8 31-117, looked up, In the dimerization assay the second copy (bait) carried a His tag in place of Flag and the same substitution; not shown: MBP, N-terminal, kept; Flag, C-terminal, kept) SLASKIKAKILNNSSIFKISLKHNIRALARALSKEKENSRRITTEKMQLQKEVEKLNFENTFLRLKLNTLNKKLVEIESHVSNDLLT the listed binding result is binds

For record MBP-Sgol2cc-Flag, wild type (mouse Sgol2 coiled coil region 31-117) (domain or fragment, UniProt Q7TSY8 31-117, looked up, In the dimerization assays the second copy (bait) carried a His tag in place of Flag (MBP-Sgol2cc-His, pET28b backbone; Flag copy in pMAL-c2x); also called MBP-mSgol2cc-Flag; MBP-Sgol2cc-His; source: also His- and Flag-tagged copies co-expressed, in extract; not shown: MBP, N-terminal, kept; Flag, C-terminal, kept) SLASKIKAKILNNSSIFKISLKHNNRALARALSKEKENSRRITTEKMQLQKEVEKLNFENTFLRLKLNTLNKKLVEIESHVSNDLLT the listed binding result is binds

For record MBP-Sgol2cc-Flag L51A (domain or fragment, mouse, UniProt Q7TSY8 31-117, looked up, In the dimerization assay the second copy (bait) carried a His tag in place of Flag and the same substitution; not shown: MBP, N-terminal, kept; Flag, C-terminal, kept) SLASKIKAKILNNSSIFKISAKHNNRALARALSKEKENSRRITTEKMQLQKEVEKLNFENTFLRLKLNTLNKKLVEIESHVSNDLLT the listed binding result is binds

For record MBP-Sgol2cc-Flag N54A (domain or fragment, mouse, UniProt Q7TSY8 31-117, looked up, In the dimerization assay the second copy (bait) carried a His tag in place of Flag and the same substitution; not shown: MBP, N-terminal, kept; Flag, C-terminal, kept) SLASKIKAKILNNSSIFKISLKHANRALARALSKEKENSRRITTEKMQLQKEVEKLNFENTFLRLKLNTLNKKLVEIESHVSNDLLT the listed binding result is binds

I'm hoping you can list binding result for every protein here, please.
1. MBP-Sgol2cc-Flag E82A (domain or fragment, mouse, UniProt Q7TSY8 31-117, looked up, In the dimerization assay the second copy (bait) carried a His tag in place of Flag and the same substitution; not shown: MBP, N-terminal, kept; Flag, C-terminal, kept) SLASKIKAKILNNSSIFKISLKHNNRALARALSKEKENSRRITTEKMQLQKAVEKLNFENTFLRLKLNTLNKKLVEIESHVSNDLLT
2. MBP-Sgol2cc-Flag R56A (domain or fragment, mouse, UniProt Q7TSY8 31-117, looked up, In the dimerization assay the second copy (bait) carried a His tag in place of Flag and the same substitution; not shown: MBP, N-terminal, kept; Flag, C-terminal, kept) SLASKIKAKILNNSSIFKISLKHNNAALARALSKEKENSRRITTEKMQLQKEVEKLNFENTFLRLKLNTLNKKLVEIESHVSNDLLT
3. MBP-Sgol2cc-Flag E82K (domain or fragment, mouse, UniProt Q7TSY8 31-117, looked up, In the dimerization assay the second copy (bait) carried a His tag in place of Flag and the same substitution; not shown: MBP, N-terminal, kept; Flag, C-terminal, kept) SLASKIKAKILNNSSIFKISLKHNNRALARALSKEKENSRRITTEKMQLQKKVEKLNFENTFLRLKLNTLNKKLVEIESHVSNDLLT

1: binds; 2: binds; 3: binds

Data provenance is paper PMC3816256.
